Biological target: mutated human GLP-2R (human) (UniProt O95838)
Sequence (O95838 other isoform, or with tags, fused parts or gaps, change not shown): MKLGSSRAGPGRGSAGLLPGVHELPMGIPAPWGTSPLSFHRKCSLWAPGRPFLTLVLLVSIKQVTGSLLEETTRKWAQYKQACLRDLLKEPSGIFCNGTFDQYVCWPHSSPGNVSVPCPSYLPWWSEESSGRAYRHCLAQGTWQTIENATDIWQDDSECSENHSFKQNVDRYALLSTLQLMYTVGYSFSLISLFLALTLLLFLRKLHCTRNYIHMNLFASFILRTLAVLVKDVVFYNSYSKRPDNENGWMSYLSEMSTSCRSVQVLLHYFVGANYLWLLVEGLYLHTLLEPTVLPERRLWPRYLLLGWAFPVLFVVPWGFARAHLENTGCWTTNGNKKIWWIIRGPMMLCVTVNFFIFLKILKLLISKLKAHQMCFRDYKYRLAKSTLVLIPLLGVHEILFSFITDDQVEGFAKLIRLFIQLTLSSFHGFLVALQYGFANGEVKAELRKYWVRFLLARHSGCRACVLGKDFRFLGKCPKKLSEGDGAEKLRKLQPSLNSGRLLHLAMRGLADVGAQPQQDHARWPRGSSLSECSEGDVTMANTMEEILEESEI
Assay: cell-based or functional assay
Ends that are not written are not given here.

- Binder: "A2G GLP-2 mimetibody linker length variant, SEQ ID NO: 9 (Fc fusion, not shown: a dimerising Fc or GST, cysteine pairing not given here; also: mimetibody: followed by CH2-CH3 domains not given here) HGDGSFSDEMNTILDNLAARDFINWLIQTKITDGGGGSGGGGSGGGGSGGGGSCPPCP"
  EC50 (nM), cAMP expression assay: 4.6
- Binder: "GLP-2 mimetibody Pro substitution variant, SEQ ID NO: 45 (Fc fusion, not shown: a dimerising Fc or GST) HGDGSFSDEMNTILDNLAARDFINWLIQTKITDGSGGGSGALVAVSSESKPGPPCPPCP"
  EC50 (nM), cAMP expression assay: 5.8
- Binder: "GLP-2 mimetibody Pro substitution variant, SEQ ID NO: 43 (Fc fusion, not shown: a dimerising Fc or GST) HGDGSFSDEMNTILDNLAARDFINWLIQTKITDGSGGGSGALVAVPSESKYGPPCPPCP"
  EC50 (nM), cAMP expression assay: 4.8
- Binder: "HGDGSFSDEMNTILDNLAARDFINWLIQTKITDGGGGSGGGGSCPPCP (Fc fusion, not shown: a dimerising Fc or GST, cysteine pairing not given here; also: mimetibody: followed by CH2-CH3 domains not given here) [A2G GLP-2 mimetibody linker length variant, SEQ ID NO: 7]"
  EC50 (nM), cAMP expression assay: 22.5
